# TESTED TARGET: T1, recombinant human ADAMTS5 (R&D Systems cat #2198-AD) (human, UniProt Q9UNA0 262-622, limits assumed)
# T1 sequence: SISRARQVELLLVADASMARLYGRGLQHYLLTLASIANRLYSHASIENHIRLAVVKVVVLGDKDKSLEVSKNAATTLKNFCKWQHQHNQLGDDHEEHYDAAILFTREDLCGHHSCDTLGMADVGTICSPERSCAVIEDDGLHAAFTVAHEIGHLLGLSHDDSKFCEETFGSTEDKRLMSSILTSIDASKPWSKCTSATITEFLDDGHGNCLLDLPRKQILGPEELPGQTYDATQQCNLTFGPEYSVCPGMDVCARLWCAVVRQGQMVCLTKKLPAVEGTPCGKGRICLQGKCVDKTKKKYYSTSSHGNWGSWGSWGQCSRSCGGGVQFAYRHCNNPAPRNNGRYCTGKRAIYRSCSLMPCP
# METHOD DESCRIPTION: cell-based or functional assay
Each entry below carries its recorded Human AlphaLISA IC50.
METRIC NAME: Human AlphaLISA IC50

BINDER	METRIC NAME	TEST VALUE
Nanobody 2D12 (VHH, tagged as tested (anti-Flag detection, IMAC); also called 02D12) VHH: EVQLVESGGGLVQAGDSLRLSCAASGRTFSTYFVGWFRQAPGKERDFVAAISRNGARTYYYDSVAGLFTISRDNAKNTVYLQMSSLKPEDTAVYYCAAARISPSDPSNEDGYDYWGQGTLVTVSS	Human AlphaLISA IC50	0.69 nM
Nanobody 9D10 (VHH) VHH: EVQLVESGGGLVQAGGSLRLSCAASGRALSSSIMGWFRQAPGKEREFVAAITWSGGRAYYADVSDFEKGRFTISRDNGKNTVNLQMKGLKPEDTAVYYCAAALAIPVTMSPHEYPYWGQGTLVTVSS	Human AlphaLISA IC50	0.97 nM
Nanobody 2F03 (VHH, tagged as tested (anti-Flag detection, IMAC); also called 02F03; 2F3) VHH: EVQLVESGGGLVQAGGSLRLSCAASGRTVSSYAMGWFRLAPGKEREFVAGISRSAERTYYVDSLKGRFTISRDSAKNTVYLHMNRLKPEDTAVYYCAADLDPNRIFSREEYAYWGQGTLVTVSS	Human AlphaLISA IC50	0.075 nM
Nanobody 7B11 (VHH, tagged as tested (anti-Flag detection, IMAC); also called 07B11) VHH: EVQLVESGGGLVQPGGSLRLSCAASGSIFSINVMGWYRQAPGKQRELVAAIISGGRTNYADSVKGRFTISRDNSKNTVYLQMNSLRPEDTAVYYCNAEVDAGIYAYGYWGQGTLVTVSS	Human AlphaLISA IC50	3.6 nM
Nanobody 2A12 (VHH, tagged as tested (anti-Flag detection, IMAC); also called 02A12) VHH: EVQLVESGGGLVQAGGSLRLSCAASGRTFSSYAMGWFRQAPGKERDFVAGISRSAGRTYYVDSVKGRFTISRDSAKNTVYLQMNRLKPEDTAVYYCAADLDPNRIFSRDEAAYWGQGTLVTVSS	Human AlphaLISA IC50	0.15 nM
Nanobody 13E02 (VHH) VHH: EVQLVESGGGLVQAGGSLRLSCVASGSIFSIDAMGWYRQAPGKERELVASVTTGASPNYGDSVTGRFTASRDRAKNALYLQMNSLKPEDTAVYYCNLIMTIPGGSQIMYWGQGTLVTVSS	Human AlphaLISA IC50	2.2 nM
Nanobody 2D07 (VHH, tagged as tested (anti-Flag detection, IMAC); also called 02D07; 2D7) VHH: EVQLVESGGGLVQAGGSLRLSCSFSGPGRTFARYAMGWFRQAPGKNRDFITGISGSGDSTYYVYPMKDRFTISRDNAKNMVYLQMNALKPEDTAVYYCAADREINRIANDKELDFWGQGTLVTVSS	Human AlphaLISA IC50	0.19 nM
Nanobody 2C10 (VHH, tagged as tested (anti-Flag detection, IMAC); also called 02C10) VHH: EVQLVESGGGLVQAGGSLRLSCATSGFTFSPYYMGWFRQAPGKERDFVAAITRSRGTTYYLDSTEGRFTISRDNAKNTMYLQMNSLNPEDTAVYYCAAGRSPGDPSRTYLYEYWGQGTLVTVSS	Human AlphaLISA IC50	0.45 nM
